target: T1, synthetic biotin-8xGA (also: biotin, position not given here); test: SPR (Biacore T200), biotin-8xGA captured on Biotin CAPture chip, Fab as analyte, 1:1 model
T1 construct: also called synthetic 8×GA; poly-(GA)8 peptide
T1 peptide: GAGAGAGAGAGAGAGA
Ends that are not written are not given here.
measured-quantity: kon (M⁻¹ s⁻¹)
API: value field is a number in M⁻¹ s⁻¹; no unit string.

NI-308.5J10 variant G55T-Fab-6His / N75D light chain (Fab, V domains shown, Plasmids SDD182 and SDD177; also called HC G55T/LC N75D Fab; 5J10-LC N75D, HC G55T Fab) VH: SETLSLTYTVLGGSVSDYYWSCIRQPAGKGLEWIGRTYTNTKTTYTYNPSLESRLSLSIDTSMNQFSLKLTSVTAADTAVYYCARWGAVTGDYYYGMDVWGPGTLVTVSS VL: EIVLTQSPLSLSVTPGEPASISCRSPRSLLHTNGYTYLDWYLQRPGQSPQLLIFLASNRASGVPDRFSGSGSGTDFTLRISGVEADDVGVYYCMQGLQPSWTFGQGTKVEIKR
200000

If you can, please state the reported kon value of NI-308.5J10 variant N54T-Fab-6His / N75D light chain (Fab, V domains shown, Plasmids SDD180 and SDD177; also called HC N54T/LC N75D Fab; 5J10-LC N75D, HC N54T Fab) VH: SETLSLTYTVLGGSVSDYYWSCIRQPAGKGLEWIGRTYTTGKTTYTYNPSLESRLSLSIDTSMNQFSLKLTSVTAADTAVYYCARWGAVTGDYYYGMDVWGPGTLVTVSS VL: EIVLTQSPLSLSVTPGEPASISCRSPRSLLHTNGYTYLDWYLQRPGQSPQLLIFLASNRASGVPDRFSGSGSGTDFTLRISGVEADDVGVYYCMQGLQPSWTFGQGTKVEIKR . 260000

Could you share which kon value was measured for NI-308.5J10 variant WT-Fab-6His / N75D light chain (Fab, V domains shown, Plasmids SDD178 and SDD177; also called LC N75D Fab; 5J10-LC N75D Fab) VH: SETLSLTYTVLGGSVSDYYWSCIRQPAGKGLEWIGRTYTNGKTTYTYNPSLESRLSLSIDTSMNQFSLKLTSVTAADTAVYYCARWGAVTGDYYYGMDVWGPGTLVTVSS VL: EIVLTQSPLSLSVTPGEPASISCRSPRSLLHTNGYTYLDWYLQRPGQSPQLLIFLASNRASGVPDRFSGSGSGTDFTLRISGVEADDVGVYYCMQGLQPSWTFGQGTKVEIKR ? 230000

Values compiled from patent US20220153874A1.
